assayed.target: soluble FGFR-1 (FRAP) (Mus musculus)
assay.text: Binding of 125I-bFGF to immobilized soluble FGFR-1 (FRAP), cell-free
measurement.parameters: IC50, bFGF-FGFR1 binding in the soluble receptor (FRAP) assay, FIG. 1B
reported.property: IC50

[Q] Observed IC50 on soluble FGFR-1 (FRAP) (Mus musculus) for C[n+]1ccc(-c2c3nc(c(-c4cc[n+](C)cc4)c4ccc([nH]4)c(-c4cc[n+](C)cc4)c4nc(c(-c5cc[n+](C)cc5)c5ccc2[nH]5)C=C4)C=C3)cc1 [Compound P1] , please.
[A] ~1000 nM

###

assayed.target: soluble FGFR-1 (FRAP) (Mus musculus)
Sequence (P16092 22-376 limits assumed): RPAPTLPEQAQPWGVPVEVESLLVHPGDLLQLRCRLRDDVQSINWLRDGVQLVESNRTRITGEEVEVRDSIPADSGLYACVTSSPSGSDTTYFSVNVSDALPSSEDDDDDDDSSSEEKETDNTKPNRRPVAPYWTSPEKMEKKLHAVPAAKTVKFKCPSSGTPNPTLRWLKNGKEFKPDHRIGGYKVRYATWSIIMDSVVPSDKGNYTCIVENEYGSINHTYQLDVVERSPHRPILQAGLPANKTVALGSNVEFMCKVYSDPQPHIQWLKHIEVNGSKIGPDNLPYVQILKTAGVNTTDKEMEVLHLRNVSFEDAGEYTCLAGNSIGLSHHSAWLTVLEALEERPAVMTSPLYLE
assay.text: Binding of 125I-bFGF to immobilized soluble FGFR-1 (FRAP), cell-free
measurement.parameters: read-out: Soluble receptor binding (IC50); binding of FGF to FGFR; Methods section (iii)
reported.property: pIC50
In simple prose, pIC50 is minus the logarithm base ten of a concentration in moles per litre.

chem.smiles	pIC50
C[n+]1ccc(-c2c3nc(c(-c4cc[n+](C)cc4)c4ccc([nH]4)c(-c4c(F)c(F)c(F)c(F)c4F)c4nc(c(-c5cc[n+](C)cc5)c5ccc2[nH]5)C=C4)C=C3)cc1.[I-].[I-].[I-]	8.00
C[n+]1ccc(C2=Cc3cc4[nH]c(cc5nc(cc6[nH]c(cc2n3)cc6-c2cc[n+](C)cc2)C=C5c2cc[n+](C)cc2)cc4-c2cc[n+](C)cc2)cc1	6.07
C[N+](C)(C)c1c(F)c(F)c(-c2c3nc(c(-c4c(F)c(F)c([N+](C)(C)C)c(F)c4F)c4ccc([nH]4)c(-c4c(F)c(F)c([N+](C)(C)C)c(F)c4F)c4nc(c(-c5c(F)c(F)c([N+](C)(C)C)c(F)c5F)c5ccc2[nH]5)C=C4)C=C3)c(F)c1F.O=S(=O)([O-])C(F)(F)F.O=S(=O)([O-])C(F)(F)F.O=S(=O)([O-])C(F)(F)F.O=S(=O)([O-])C(F)(F)F	7.10

Let us examine a further case.
[Q] Observed pIC50 on soluble FGFR-1 (FRAP) (Mus musculus) for "C[n+]1cccc(-c2c3nc(c(-c4ccc[n+](C)c4)c4ccc([nH]4)c(-c4ccc[n+](C)c4)c4nc(c(-c5ccc[n+](C)c5)c5ccc2[nH]5)C=C4)C=C3)c1.Cc1ccc(S(=O)(=O)[O-])cc1.Cc1ccc(S(=O)(=O)[O-])cc1.Cc1ccc(S(=O)(=O)[O-])cc1.Cc1ccc(S(=O)(=O)[O-])cc1" , please.
[A] 5.00
